# target under test: Factor X (FX), P00742
# Sequence (P00742 whole entry, looked up): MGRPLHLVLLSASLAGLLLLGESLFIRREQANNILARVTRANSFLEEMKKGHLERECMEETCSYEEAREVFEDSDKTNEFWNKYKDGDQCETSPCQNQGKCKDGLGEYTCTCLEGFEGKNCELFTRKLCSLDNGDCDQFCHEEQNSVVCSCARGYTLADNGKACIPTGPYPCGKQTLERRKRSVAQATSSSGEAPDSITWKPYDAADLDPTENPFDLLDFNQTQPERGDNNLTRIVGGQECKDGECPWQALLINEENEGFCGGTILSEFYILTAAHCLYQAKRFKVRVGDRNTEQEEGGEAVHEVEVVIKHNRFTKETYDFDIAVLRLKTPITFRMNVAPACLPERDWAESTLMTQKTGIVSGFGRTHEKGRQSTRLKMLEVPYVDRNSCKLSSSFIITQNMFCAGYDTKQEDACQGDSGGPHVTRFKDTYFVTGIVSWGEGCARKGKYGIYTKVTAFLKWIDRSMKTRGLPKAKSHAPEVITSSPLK
reported property: kcat/KM (M⁻¹ s⁻¹)
// note: answer is a bare numeric in M⁻¹ s⁻¹

Tell me kcat/KM reported for FIXa variant D203N/F205T/R318Y/E410N (protein) chain 1: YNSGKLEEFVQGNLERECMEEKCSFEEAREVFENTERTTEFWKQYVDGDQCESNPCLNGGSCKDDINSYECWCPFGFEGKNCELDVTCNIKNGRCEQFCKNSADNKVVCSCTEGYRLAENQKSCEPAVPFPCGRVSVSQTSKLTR chain 2: VVGGEDAKPGQFPWQVVLNGKVNATCGGSIVNEKWIVTAAHCVETGVKITVVAGEHNIEETEHTEQKRNVIRIIPHHNYNAAINKYNHDIALLELDEPLVLNSYVTPICIADKEYTNIFLKFGSGYVSGWGRVFHKGYSALVLQYLRVPLVDRATCLRSTKFTIYNNMFCAGFHEGGRDSCQGDSGGPHVTEVEGTSFLTGIISWGEECAMKGKYGIYTKVSRYVNWIKNKTKLT
3.9e+07

Tell me kcat/KM reported for FIXa variant Y155F/R318Y/R403E/E410N (protein) chain 1: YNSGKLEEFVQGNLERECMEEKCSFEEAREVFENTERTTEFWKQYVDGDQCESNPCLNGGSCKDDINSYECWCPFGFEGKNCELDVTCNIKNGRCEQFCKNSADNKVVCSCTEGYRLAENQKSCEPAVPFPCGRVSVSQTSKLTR chain 2: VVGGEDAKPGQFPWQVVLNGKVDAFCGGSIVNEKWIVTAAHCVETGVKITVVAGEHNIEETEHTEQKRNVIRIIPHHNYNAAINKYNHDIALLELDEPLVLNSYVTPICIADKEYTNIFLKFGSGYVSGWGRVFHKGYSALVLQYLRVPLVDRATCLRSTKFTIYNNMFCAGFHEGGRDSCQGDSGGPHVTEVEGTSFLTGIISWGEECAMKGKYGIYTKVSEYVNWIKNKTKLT
3.6e+07
